Target: α1-adrenergic receptor (Homo sapiens)
Sequence (P35348 1-475 isoform P35348-2): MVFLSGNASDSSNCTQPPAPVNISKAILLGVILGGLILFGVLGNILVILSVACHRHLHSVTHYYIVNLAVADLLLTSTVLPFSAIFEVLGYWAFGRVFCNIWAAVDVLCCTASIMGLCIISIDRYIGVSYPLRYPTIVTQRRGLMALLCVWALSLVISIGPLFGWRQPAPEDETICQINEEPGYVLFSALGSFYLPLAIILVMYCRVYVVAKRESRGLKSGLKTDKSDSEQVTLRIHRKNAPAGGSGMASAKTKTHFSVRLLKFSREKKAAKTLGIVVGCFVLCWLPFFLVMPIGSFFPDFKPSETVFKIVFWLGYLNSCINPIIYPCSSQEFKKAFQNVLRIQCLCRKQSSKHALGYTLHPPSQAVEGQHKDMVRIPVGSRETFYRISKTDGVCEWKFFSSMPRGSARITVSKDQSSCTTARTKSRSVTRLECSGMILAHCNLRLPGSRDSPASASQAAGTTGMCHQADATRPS
pKi: −log10 of the molar value. Structures can show the parent of a compound that is named as a salt.
For each entry below, report its pKi value.

# value of pKi, α1-adrenergic receptor (Homo sapiens), item O=S(=O)(c1cccc(OC(F)(F)F)c1)n1ccc2cc(C3CNC3)ccc21 [compound 20, hydrochloride] = < 6.00

# value of pKi, α1-adrenergic receptor (Homo sapiens), item O=S(=O)(c1ccccc1)N1CCc2cc(C3CNC3)ccc21 [compound 7, hydrochloride] = < 6.00

# value of pKi, α1-adrenergic receptor (Homo sapiens), item CCCN1CC(c2ccc3c(ccn3S(=O)(=O)c3cccc(C(F)(F)F)c3)c2)C1 [compound 25, hydrochloride] = < 6.60

# value of pKi, α1-adrenergic receptor (Homo sapiens), item O=S(=O)(c1cccc(C(F)(F)F)c1)n1ccc2cc(C3CNC3)ccc21 [compound 19, hydrochloride] = < 6.00

# value of pKi, α1-adrenergic receptor (Homo sapiens), item O=S(=O)(c1ccccc1)n1ccc2cc(C3CNC3)cnc21 [compound 46, formic acid salt] = < 5.00

# value of pKi, α1-adrenergic receptor (Homo sapiens), item CCCN1CC(c2ccc3c(ccn3S(=O)(=O)c3ccccc3)c2)C1 [compound 5, hydrochloride] = < 6.60

# value of pKi, α1-adrenergic receptor (Homo sapiens), item CCCN1CC(c2ccc3c(ccn3S(=O)(=O)c3cccc(OC(F)(F)F)c3)c2)C1 [compound 26, hydrochloride] = < 6.60
